- ASSAY_COMMENT: Cytotoxicity against human HepG2(2.2.15) cells
- Type: cell-based
TEST_READOUT: CC50

* CCC(=O)O[C@@H](C[C@@H](C)C1=C2C[C@H](OC(=O)CC)[C@H]3[C@@]4(C)CCC(=O)C(C)(C)[C@@H]4CC[C@]3(C)[C@@]2(C)CC1)[C@@H](OC(=O)CC)C(C)(C)OC(=O)CC | > 1.9 mM
* Nc1ccn([C@@H]2CS[C@H](CO)O2)c(=O)n1 [LAMIVUDINE] | 35 mM
* C[C@H](C[C@H](OC(=O)c1ccccc1)[C@@H](OC(=O)c1ccccc1)C(C)(C)OC(=O)c1ccccc1)[C@]12CC[C@@]3(C)[C@@]1(C[C@H](OC(=O)c1ccccc1)[C@H]1[C@@]4(C)CCC(=O)C(C)(C)[C@@H]4CC[C@@]13C)O2 | > 1.7 mM

----------
- ASSAY_COMMENT: Tmax in Sprague-Dawley rat at 10 mg/kg, ig
- Format: ADME, organism-based
- Set-up: dose 10 mg/kg, route intragastric
- EXPERIMENTAL_CONTEXT: in vivo, po
TEST_READOUT: Tmax (h)

* CC(=O)O[C@@H](C[C@@H](C)C1=C2C[C@H](OC(C)=O)[C@H]3[C@@]4(C)CCC(=O)C(C)(C)[C@@H]4CC[C@]3(C)[C@@]2(C)CC1)[C@@H](OC(C)=O)C(C)(C)OC(C)=O | 1

----------
- System: Hepatitis B virus
- ASSAY_COMMENT: Antiviral activity against HBV assessed as inhibition of viral early antigen secretion
- Assay type: functional, organism-based
pIC50: −log10 of the molar value.
TEST_READOUT: pIC50

- C[C@H](C[C@H](OC(=O)COc1ccccc1)[C@@H](OC(=O)COc1ccccc1)C(C)(C)OC(=O)COc1ccccc1)C1=C2C[C@H](OC(=O)COc3ccccc3)[C@H]3[C@@]4(C)CCC(=O)C(C)(C)[C@@H]4CC[C@]3(C)[C@@]2(C)CC1: < 2.85
- CC(=O)O[C@@H](C[C@@H](C)[C@]12CC[C@@]3(C)[C@@]1(C[C@H](OC(C)=O)[C@H]1[C@@]4(C)CCC(=O)C(C)(C)[C@@H]4CC[C@@]13C)O2)[C@@H](OC(C)=O)C(C)(C)OC(C)=O: 4.21
- C[C@H](C[C@H](OC(=O)COc1cc(Cl)c(Cl)cc1Cl)[C@@H](OC(=O)COc1cc(Cl)c(Cl)cc1Cl)C(C)(C)OC(=O)COc1cc(Cl)c(Cl)cc1Cl)C1=C2C[C@H](OC(=O)COc3cc(Cl)c(Cl)cc3Cl)[C@H]3[C@@]4(C)CCC(=O)C(C)(C)[C@@H]4CC[C@]3(C)[C@@]2(C)CC1: < 2.92
- CC(C)CC(=O)O[C@@H](C[C@@H](C)C1=C2C[C@H](OC(=O)CC(C)C)[C@H]3[C@@]4(C)CCC(=O)C(C)(C)[C@@H]4CC[C@]3(C)[C@@]2(C)CC1)[C@@H](OC(=O)CC(C)C)C(C)(C)OC(=O)CC(C)C: < 2.70

----------
- ASSAY_COMMENT: Drug level in Sprague-Dawley rat blood at 2 mg/kg, iv after 2 hrs
- Format: ADME, organism-based
- Design: dose 2 mg/kg, route intravenous
- EXPERIMENTAL_CONTEXT: read-out: Drug uptake
TEST_READOUT: concentration at 2 h (ng/mL)

- CC(=O)O[C@@H](C[C@@H](C)C1=C2C[C@H](OC(C)=O)[C@H]3[C@@]4(C)CCC(=O)C(C)(C)[C@@H]4CC[C@]3(C)[C@@]2(C)CC1)[C@@H](OC(C)=O)C(C)(C)OC(C)=O: 71.8
